system: Zika virus NS2B-NS3 protease (unlinked complex); experiment: Primary screen GU Rhodamine qHTS for Zika virus inhibitors: Unlinked NS2B-NS3 protease assay (AID 1347159); settings: Recombinant ZIKV NS2B-NS3 protease, Rhodamine110 substrate fluorescence; series mostly up to 107 µM; further: nearly all actives have a fitted effect of over 60% in size
Records with an inconclusive call do not appear. Activity calls are given as the source filed them. The call rests on the fitted dose curve; in most records, active means well fitted inhibition curve with a large enough effect; inconclusive means small, poorly fitted or top-dose-only effect; inactive means no such curve, though single readings can be large or run the other way.
Write down one outcome, taken from active, inactive

Which outcome was assigned to CCCc1cc2c(N3CCN(C4=NCC(C)(C)S4)CC3)ncnc2s1 in this test?
inactive

Now consider CC(C)C[C@H](CO)Nc1nc(S[C@@H](C)c2ccccc2)nc2nc(N)sc12 .
inactive

Now consider COC1CC(=O)C23C(=O)NC(CC(C)C)C2C(C)C(C)=CC3/C=C(\C)CCCC1O (configuration not stated) .
inactive

Now consider C=C1CC2OC(=O)C(COC)C2C(OC(=O)/C(C)=C\C)CC2(C)OC1=CC2=O (configuration not stated) .
inactive

Now consider COc1cccc(N2CCN(C3=Nc4c(F)cccc4[C@H](CC(=O)O)N3c3cc(C(F)(F)F)ccc3OC)CC2)c1 .
active

Now consider CC(C)n1cnc2c(-c3cnc(N)nc3)nc(N3CCOCC3)nc21 .
inactive

Now consider Cc1cccc(-c2[nH]ncc2-c2ccc(F)c(-c3cnn(CCO)c3)c2)n1 .
inactive

Now consider CCCCC1CCC(c2nc(-c3ccncc3)no2)CC1 (configuration not stated) .
inactive

Now consider CCCCC1CCN(CCCN2C(=O)CCc3ccccc32)CC1 .
inactive

Now consider O=C(NCCCNc1nc(Nc2cccc(CN3CCOCC3)c2)ncc1C1CC1)C1CCC1 .
inactive

Now consider CC(C)c1c(O)ccc2c1CC[C@H]1C(C)(C)CCC[C@]21C .
active

Now consider COc1cc2ncnc(Nc3ccc(O)c(Br)c3)c2cc1OC .
inactive

Now consider COC(=O)c1ccc2c(c1)nc(NC(=O)c1ccccc1)n2CCCc1ccccc1 .
inactive

Now consider Cc1ccc(N2CCN(CCC3NC(=O)c4ccccc43)CC2)cc1C (configuration not stated) .
inactive

Now consider C=C[C@@]1(C)C=C2C(=O)C(O)=C3[C@](C)(C(=O)O)CC[C@@H]4C[C@]34[C@]2(O)C(=O)C1 .
inactive

Now consider CCN1C(C)(C)CC(Oc2ccc(C(=O)Nc3ccc(NC(=O)Nc4cc(C(C)(C)C)on4)cc3)nc2)CC1(C)C .
inactive

Now consider COc1ccc2nc(-c3cc(OC)c(OC)c(OC)c3)cc(C(=O)NCC(=O)Nc3ccc(C(C)=O)cc3)c2c1 .
inactive

Now consider CCCCc1c(-c2ccc(OC)cc2)[nH]c2nccnc12 .
inactive

Now consider CCNC(=O)N1CCCN(c2ccc(C(=O)NCCc3ccc(Cl)cc3Cl)cc2NC(=O)c2cccc(Cl)c2)CC1 .
inactive

Now consider C[C@@H]1CC[C@@]23CC[C@]4(C)[C@@](C=CC5[C@@]6(C)CC[C@H](O)C(C)(C)C6CC[C@]54C)(OC2=O)C3[C@H]1C (some centres not stated) .
active

Now consider CCOc1ccc(-n2c(C(C)N(Cc3cccnc3)C(=O)Cc3ccc(F)c(C(F)(F)F)c3)nc3ncccc3c2=O)cc1 (configuration not stated) .
inactive

Now consider COCCCNC(=O)c1ccc(Cn2c(=O)c3ccccc3n(Cc3ccc(C(C)C)cc3)c2=O)cc1 .
inactive

Now consider Fc1ccc2[nH]ccc2c1-c1nc(N2CCOCC2)c2sc(CN3CCN(CC4CC4)CC3)cc2n1 .
inactive

Now consider Cc1ccc(S(=O)(=O)NCc2ccc(C(=O)NCCN(Cc3ccccc3)C(C)C)cc2)cc1 .
inactive

Now consider N#Cc1cc(C2=Nc3ccc(Br)cc3NC(=O)C2)ccn1 .
inactive

Now consider Cc1cccc(-c2[nH]ncc2-c2ccnc3ccccc23)n1 .
inactive

Now consider COc1cc(NC(=O)c2cccc(-n3cc(NC(=O)Nc4cccc(C)c4)cn3)c2)cc(OC)c1OC .
inactive

Now consider CCC(C)c1ccc(NC(=O)Cn2cnc3c2c(=O)n(C)c(=O)n3C)cc1 (configuration not stated) .
inactive

Now consider C=C1C(=O)OC2/C=C(\COC(C)=O)CC/C=C(\C=O)CC(OC(=O)C(C)CC)C12 (configuration not stated) .
inactive

Now consider Cc1cc(C(C)Nc2ccccc2C(=O)O)c2nc(N3CCOCC3)cc(=O)n2c1 (configuration not stated) .
inactive

Now consider COc1ccc(NC(=O)c2ccc(-c3ccc(-c4nnc(C)o4)cc3C)cc2)cc1N1CCN(C)CC1 .
inactive

Now consider CCN1CCC[C@@H]1CNC(=O)c1ccc2c(c1)NC(=O)c1cccc(C)c1S2 .
inactive

Now consider COC(=O)C[C@H]1[C@]2(C)C3=C(C)[C@H](c4ccoc4)C[C@H]3O[C@@H]2[C@H](O)C2[C@](C)(C(=O)OC)C=CC(=O)[C@@]21C (some centres not stated) .
inactive

Now consider Cc1cc2sc(NC(=O)Cc3ccccc3)nc2cc1Cl .
inactive

Now consider COc1ccc(CCc2nc3cc(-c4c(C)noc4C)ccc3n2CC(C)N2CCOCC2)cc1Cl (configuration not stated) .
inactive

Now consider O=C(Nc1ccccc1)N1CCN(c2nc(-c3ccccc3)ns2)CC1 .
inactive

Now consider Cc1[nH]c2ccccc2c1CCNC(=O)c1cccs1 .
inactive
